target: HLA-DR molecule encoded by the allele DRB1*0701 (human)
protocol.description: competition ELISA vs biotinylated YKL
Would you kindly list IC50 for each of these binders?
# output: bare number, implied unit nM

IN: Entry GKWSKSSVVGWPTVR (modifications not checked) [Nef1.1 peptide (positions 3-17 of the HIV-1 Nef protein, Bru strain), P03406 3-17] has what IC50?
OUT: 48

IN: Entry GVRYPLTFGWCYKLVP (modifications not checked) [Nef9 peptide (positions 132-147 of the HIV-1 Nef protein, Bru strain), P03406 132-147] has what IC50?
OUT: 5500

IN: Entry EANKGENTSLLHPVSLHGMDDPEREVLEWRF (modifications not checked) [Nef11 peptide (positions 155-185 of the HIV-1 Nef protein, Bru strain), P03406 155-185] has what IC50?
OUT: 3750

IN: Entry YKLVPVEPDKVEEAN (modifications not checked) [Nef10.4 peptide (positions 143-157 of the HIV-1 Nef protein, Bru strain), P03406 143-157] has what IC50?
OUT: 2250

IN: Entry SRLAFHHVARELHPE (modifications not checked) [Nef13.4 peptide (positions 187-201 of the HIV-1 Nef protein, Bru strain), P03406 187-201] has what IC50?
OUT: 225

IN: Entry LTFGWCYKLVPVEPD (modifications not checked) [Nef10.1 peptide (positions 137-151 of the HIV-1 Nef protein, Bru strain), P03406 137-151] has what IC50?
OUT: 650

IN: Entry LTFGWCYKLVPVEPDKVEEANKGENTSLLHPV (modifications not checked) [Nef10 peptide (positions 137-168 of the HIV-1 Nef protein, Bru strain), P03406 137-168] has what IC50?
OUT: 65

IN: Entry LEWRFDSRLAFHHVA (modifications not checked) [Nef13.2 peptide (positions 181-195 of the HIV-1 Nef protein, Bru strain), P03406 181-195] has what IC50?
OUT: 933

IN: Entry FHHVARELHPEYFKN (modifications not checked) [Nef13.6 peptide (positions 191-205 of the HIV-1 Nef protein, Bru strain), P03406 191-205] has what IC50?
OUT: 2500

IN: Entry WCYKLVPVEPDKVEE (modifications not checked) [Nef10.3 peptide (positions 141-155 of the HIV-1 Nef protein, Bru strain), P03406 141-155] has what IC50?
OUT: 250

IN: Entry LAFHHVARELHPEYF (modifications not checked) [Nef13.5 peptide (positions 189-203 of the HIV-1 Nef protein, Bru strain), P03406 189-203] has what IC50?
OUT: 250

IN: Entry LEKHGAITSSNTAATNAACAWLEAQEEEEVGFPVT (modifications not checked) [Nef3 peptide (positions 37-71 of the HIV-1 Nef protein, Bru strain), P03406 37-71] has what IC50?
OUT: 3000

IN: Entry WIYHTQGYFPDWQNYT (modifications not checked) [Nef7 peptide (positions 113-128 of the HIV-1 Nef protein, Bru strain), P03406 113-128] has what IC50?
OUT: 4000

IN: Entry FGWCYKLVPVEPDKV (modifications not checked) [Nef10.2 peptide (positions 139-153 of the HIV-1 Nef protein, Bru strain), P03406 139-153] has what IC50?
OUT: 120

IN: Entry EWRFDSRLAFHHVAREL (modifications not checked) [Nef13 peptide (positions 182-198 of the HIV-1 Nef protein, Bru strain), P03406 182-198] has what IC50?
OUT: 150

IN: Entry REVLEWRFDSRLAFH (modifications not checked) [Nef13.1 peptide (positions 178-192 of the HIV-1 Nef protein, Bru strain), P03406 178-192] has what IC50?
OUT: 350

IN: Entry DPEREVLEWRFDSRLA (modifications not checked) [Nef12 peptide (positions 175-190 of the HIV-1 Nef protein, Bru strain), P03406 175-190] has what IC50?
OUT: 700

IN: Entry WRFDSRLAFHHVARE (modifications not checked) [Nef13.3 peptide (positions 183-197 of the HIV-1 Nef protein, Bru strain), P03406 183-197] has what IC50?
OUT: 900

IN: Entry MGGKWSKSSVVGWPTVRERMRRAEPAADGVGAASRD (modifications not checked) [Nef1 peptide (positions 1-36 of the HIV-1 Nef protein, Bru strain), P03406 1-36] has what IC50?
OUT: 40
